- testedOn: purified HLA-DRB1*0101 (Homo sapiens, UniProt P01903+P01911, A100R/D57E/F55L/F60I/F76Y/I96L/L162R/M171V/P40L/Q125E/R42F/V115G/Y59C)
- experimentalProtocol: biochemical
Where a SMILES comes first, the peptide text is derived from it.
reportedProperty: IC50

Task: # lookup: IC50 of CC[C@H](C)[C@H](NC(=O)[C@H](CC(C)C)NC(=O)[C@H](Cc1c[nH]cn1)NC(=O)[C@H](CC(=O)O)NC(=O)[C@H](CO)NC(=O)[C@H](CCC(=O)O)NC(=O)[C@H](CC(C)C)NC(=O)[C@H](CC(C)C)NC(=O)[C@H](Cc1c[nH]c2ccccc12)NC(=O)[C@H](CCC(N)=O)NC(=O)[C@H](CC(N)=O)NC(=O)[C@H](CCCNC(=N)N)NC(=O)[C@@H](N)Cc1ccccc1)C(=O)N[C@@H](CO)C(=O)N[C@@H](CCC(=O)O)C(=O)O [WWAV GPC386-400] (H-FRNQWLLESDHLISE-OH)
Output: 1.6 nM
